Values compiled from patent US20230414499A1.

assay: Pharmacokinetic test of Beagle dogs; type: in vivo; conditions: both sexes, dog, plasma, po, intragastric administration of solution, 2 mg, n=4, read-out: Absolute bioavailability
Where a name gives a salt, the structure may show the parent alone.
parameter_measured: bioavailability (%)
State just the number; it will be interpreted in %.

Query: I am curious: what bioavailability value has been reported for C#CCN[C@@H]1CCc2ccccc21 [Rasagiline mesylate] ?
Reply: 11.8
